- Organism: Homo sapiens
- TEST_METHOD_NOTES: Selectivity ratio of IC50 for JAK1 (unknown origin) to IC50 for JAK2 (unknown origin)
EXPERIMENTAL_ENDPOINT: Ratio IC50

smiles_structure=Nc1n[nH]c2ccc(C(=O)Nc3ccccc3Cl)cc12 numeric_readout=18
smiles_structure=CCNc1ccccc1C(=O)Nc1ccc2[nH]ncc2c1 numeric_readout=6
smiles_structure=c1ccc(-n2cnnn2)c(-c2nc(-c3ccc4[nH]ncc4c3)cs2)c1 numeric_readout=5
smiles_structure=O=C(Nc1ccc2[nH]ncc2c1)c1c(Cl)cccc1-n1cnnn1 numeric_readout=14

P = O=C(Nc1ccc2[nH]ncc2c1)c1ccccc1-n1cnnn1
Q = Nc1n[nH]c2ccc(C(=O)Nc3ccccc3)cc12
Two entries are listed, P and Q . Which one carries the higher Ratio IC50? Lab log: write the label of the selected item as the result. P
